The reported numbers originate from patent EP2924037A1.

# Lookup of reported fold induction at 0.02 µg/mL keyed by entry
# Target Of Assay: pgk1 (Mus musculus)
# Construct: His; made in house; host or cells: E. coli
# Measurement Description: Activity assay of pgk1 (GAPDH-coupled, absorbance at 340 nm)
# Assay type: biochemical
# Assay Conditions: read-out: Activity* (the times of pgk1 activity induced by 0.02µg/ml of the tested compound)

Compound	fold induction at 0.02 µg/mL
COc1cc2nc(N3CCN(C(=O)C4CCCO4)CC3)nc(NCCOCCO)c2cc1OC (stereo not shown)	2.3
CCOCCOc1c(OC)c(OC)c(OCCOCC)c2c(N)nc(N3CCN(C(=O)C4CCCO4)CC3)nc12 (stereo not shown)	2.7
COc1cc2nc(N3CCN(C(=O)C4CCCO4)CC3)nc(NC(=O)C(F)(F)F)c2cc1OC (stereo not shown)	1.8
COc1cc2c(N)nc(N3CCN(C(=O)C4CCCO4)CC3)nc2cc1OC1CC=CCC1 (stereo not shown)	0.4

----------
# Target Of Assay: pgk1 (Mus musculus, UniProt P09411)
# Construct: His; made in house; host or cells: E. coli
# Measurement Description: Activity assay of pgk1 (GAPDH-coupled, absorbance at 340 nm)
# Format: biochemical
# Assay Conditions: read-out: Activity* (the times of pgk1 activity induced by 0.02µg/ml of the tested compound)
Quantity Measured: fold induction at 0.02 µg/mL

Molecule	Target Of Assay	Test Result
COc1cc2nc(N3CCN(C(=O)C4CCCO4)CC3)nc(NC3CCCCC3)c2cc1OC (stereo not drawn) [Co.9]	pgk1 (Mus musculus, UniProt P09411)	1.4
COc1c(OC)c(C(F)(F)F)c2c(N)nc(N3CCN(C(=O)C4CCCO4)CC3)nc2c1N1CCCCC1 (stereo not drawn) [Co.27]	pgk1 (Mus musculus, UniProt P09411)	0.9
Nc1nc(N2CCN(C(=O)C3CCCO3)CC2)nc2cc3c(cc12)OCO3 (stereo not drawn) [Co.15]	pgk1 (Mus musculus, UniProt P09411)	0.6
COc1cc2nc(N3CCN(C(=O)C4CCCO4)CC3)nc(Nc3ccccc3)c2cc1OC (stereo not drawn) [Co.12]	pgk1 (Mus musculus, UniProt P09411)	2.6
COc1cc2c(N)nc(N3CCN(C(=O)C4CCCO4)CC3)nc2cc1OC(C)=O (stereo not drawn) [Co.17]	pgk1 (Mus musculus, UniProt P09411)	1.1
CCCCCCNc1nc(N2CCN(C(=O)C3CCCO3)CC2)nc2cc(OC)c(OC)cc12 (stereo not drawn) [Co.7]	pgk1 (Mus musculus, UniProt P09411)	2.1
COc1c(OC)c(OC)c2c(N)nc(N3CCN(C(=O)C4CCCO4)CC3)nc2c1NC(=O)c1ccccc1 (stereo not drawn) [Co.31]	pgk1 (Mus musculus, UniProt P09411)	0.6
COc1c(OC)c(OC)c2c(N)nc(N3CCN(C(=O)C4CCCO4)CC3)nc2c1OC1CC=CCC1 (stereo not drawn) [Co.32]	pgk1 (Mus musculus, UniProt P09411)	2.8
C#CCNc1nc(N2CCN(C(=O)C3CCCO3)CC2)nc2cc(OC)c(OC)cc12 (stereo not drawn) [Co.6]	pgk1 (Mus musculus, UniProt P09411)	1.2

----------
# Lookup of reported fold induction at 0.02 µg/mL keyed by entry
# Target Of Assay: pgk1 (Mus musculus)
# Construct: His; made in house; host or cells: E. coli
# Sequence (P09411 1-417): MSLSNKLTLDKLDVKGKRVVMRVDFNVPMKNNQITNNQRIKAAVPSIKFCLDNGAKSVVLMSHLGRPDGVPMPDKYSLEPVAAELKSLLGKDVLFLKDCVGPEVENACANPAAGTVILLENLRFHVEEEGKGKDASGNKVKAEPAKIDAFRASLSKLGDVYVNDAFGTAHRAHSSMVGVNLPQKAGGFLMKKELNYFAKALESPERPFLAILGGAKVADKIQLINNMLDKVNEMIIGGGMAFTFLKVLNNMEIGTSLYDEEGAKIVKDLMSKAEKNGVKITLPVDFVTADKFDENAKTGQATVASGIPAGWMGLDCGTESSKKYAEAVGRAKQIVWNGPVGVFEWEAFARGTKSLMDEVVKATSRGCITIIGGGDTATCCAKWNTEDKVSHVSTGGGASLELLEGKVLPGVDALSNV
# Measurement Description: Activity assay of pgk1 (GAPDH-coupled, absorbance at 340 nm)
# Type: biochemical
# Assay Conditions: read-out: Activity* (the times of pgk1 activity induced by 0.02µg/ml of the tested compound)

Compound	fold induction at 0.02 µg/mL
Nc1nc(N2CCN(C(=O)C3CCCO3)CC2)nc2cc(N3CCCCC3)c(C(F)(F)F)cc12 (stereo not drawn)	1.4
COc1cc2nc(N3CCN(C(=O)C4CCCO4)CC3)nc(NO)c2cc1OC (stereo not drawn)	3.4
CCCc1cc2nc(N3CCN(C(=O)C4CCCO4)CC3)nc(N)c2cc1OC (stereo not drawn)	2.4
COc1cc2nc(N3CCN(C(=O)C4CCCO4)CC3)nc(N(C)CCOCCO)c2cc1OC (stereo not drawn)	2.1
CCCCc1c(OC)c(OC)c(OC)c2c(N)nc(N3CCN(C(=O)C4CCCO4)CC3)nc12 (stereo not drawn)	1.8
COc1cc2c(N)nc(N3CCN(C(=O)C4CCCO4)CC3)nc2cc1NC(=O)c1ccccc1 (stereo not drawn)	0.7
COc1cc2nc(N3CCN(C(=O)C4CCCO4)CC3)nc(NCCCCC(F)(F)F)c2cc1OC (stereo not drawn)	0.9
COc1c(OC)c(OC)c2c(N)nc(N3CCN(C(=O)C4CCCO4)CC3)nc2c1NC(C)=O (stereo not drawn)	2.6
COc1c(OC)c(OC)c2c(N)nc(N3CCN(C(=O)C4CCCO4)CC3)nc2c1OC(C)=O (stereo not drawn)	3.2
